The reported numbers originate from patent US4117146A.

Assay Text: intraperitoneal acute 50 percent lethal dose
Study Conditions: mouse, in vivo, ip
Measured Endpoint: LD50 (mg/kg)

Cl.Clc1ccccc1NNC1=NCCN1    167
